- tgt: UniProt Q62230
- Sequence (Q62230 20-136 limits assumed): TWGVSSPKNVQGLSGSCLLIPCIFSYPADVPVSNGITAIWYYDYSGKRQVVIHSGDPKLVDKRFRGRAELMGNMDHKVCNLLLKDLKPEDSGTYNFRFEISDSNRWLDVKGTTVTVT
- experiment description: Hapten inhibition assay, Siglec-1 (sialoadhesin)
- Assay type: binding
- experimental parameters: quotient IC50 reference compound / IC50 compound
I'd appreciate it if you could supply Siglec-1 (sialoadhesin) rIP values for the items below.
The response must contain the number and no unit.

Request: For the molecule CO[C@]1(C(=O)O)C[C@H](O)[C@@H](NC(C)=O)[C@H]([C@H](O)[C@H](O)CNC(C)=S)O1 , what Siglec-1 (sialoadhesin) rIP is on record?
Response: 0.3

Request: What would you report for CO[C@]1(C(=O)O)C[C@H](O)[C@@H](NC(C)=O)[C@H]([C@H](O)[C@H](O)CNC(=O)c2cc(O)cc(O)c2)O1 ?
Response: 1.7

Request: # iterate: CO[C@]1(C(=O)O)C[C@H](O)[C@@H](NC(C)=O)[C@H]([C@H](O)[C@H](O)CO)O1 [Methyl-α-Neu5Ac, reference compound]
Response: 1.0
